Molecular target: T1, Human C5 (human, UniProt P01031 19-1676)
T1 construct: The natural protein has a beta and an alpha chain; also called complement factor 5; complement component 5
Experiment: SPR, mAb captured by anti-hFc, 25C
Procedure: Equilibrium dissociation constants (KD values) for C5 binding to purified anti-C5 antibodies were determined using a real-time surface plasmon resonance biosensor assay on a Biacore T200 instrument. […] Human C5 was obtained from a commercial source (EMD). […] Association of all the C5 reagents to each of the captured monoclonal antibodies was monitored for 3 minutes and their dissociation in HBST running buffer was monitored for 8 minutes. […]
reported property: koff (s⁻¹)
Respond with the bare value in s⁻¹.

I have this binder here, H4H12166P4 (antibody, human IgG4, V domains shown, human IgG4 Fc with S108P hinge mutation) VH: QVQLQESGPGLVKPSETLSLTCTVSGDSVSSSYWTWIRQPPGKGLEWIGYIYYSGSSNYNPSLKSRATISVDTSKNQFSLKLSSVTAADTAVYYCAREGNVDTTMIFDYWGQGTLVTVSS VL: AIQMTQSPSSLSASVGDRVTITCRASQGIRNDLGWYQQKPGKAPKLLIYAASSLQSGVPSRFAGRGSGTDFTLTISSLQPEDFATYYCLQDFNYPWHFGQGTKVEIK , and I need its recorded koff.
0.000176

I have this binder here, H4H12170P (antibody, human IgG4, V domains shown) VH: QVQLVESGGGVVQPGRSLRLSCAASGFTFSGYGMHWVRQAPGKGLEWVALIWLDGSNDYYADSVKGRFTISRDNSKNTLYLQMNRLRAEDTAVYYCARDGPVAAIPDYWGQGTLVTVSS VL: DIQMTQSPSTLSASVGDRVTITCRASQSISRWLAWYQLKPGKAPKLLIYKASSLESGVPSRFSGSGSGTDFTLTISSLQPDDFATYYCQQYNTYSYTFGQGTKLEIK , and I need its recorded koff.
6.79e-05

I have this binder here, H4H12166P9 (antibody, human IgG4, V domains shown, human IgG4 Fc with S108P hinge mutation) VH: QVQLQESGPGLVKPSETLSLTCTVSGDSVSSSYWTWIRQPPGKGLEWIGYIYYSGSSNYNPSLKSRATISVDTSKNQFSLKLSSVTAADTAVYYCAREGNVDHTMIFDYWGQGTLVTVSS VL: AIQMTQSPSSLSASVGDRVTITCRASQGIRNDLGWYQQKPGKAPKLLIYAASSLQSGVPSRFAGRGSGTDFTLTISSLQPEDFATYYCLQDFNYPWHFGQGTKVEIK , and I need its recorded koff.
0.000264
